target: KRAS-G12D protein (Homo sapiens, UniProt P01116, G12D); test: SOS-mediated nucleotide exchange assay (BODIPY-GDP / Tb-streptavidin TR-FRET); assay type: biochemical
Sequence (P01116 1-188 isoform P01116-2 G12D): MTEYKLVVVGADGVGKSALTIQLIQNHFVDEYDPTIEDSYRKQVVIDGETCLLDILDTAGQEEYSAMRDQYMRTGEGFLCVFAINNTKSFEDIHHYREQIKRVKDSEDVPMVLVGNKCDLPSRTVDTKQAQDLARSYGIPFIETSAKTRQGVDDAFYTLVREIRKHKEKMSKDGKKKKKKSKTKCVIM
*1 amine or outer side, *2 acyl side, *3 side chain or, on linkers, in order; H or OH if unused. Where a SMILES comes first, the peptide text is derived from it. Bridges are numbered along the chain shown (N, C = ends). [ ]: non-standard residue; d: D form. Phe(4-guanidino) = N=C(N)Nc1ccc(C[C@H](N)C(=O)O)cc1; X25 = O=C([C@H](Cc1ccc(F)nc1)N[*:1])[*:2]; Ala(cPent) = N[C@@H](CC1CCCC1)C(=O)O; Phe(2-F) = N[C@@H](Cc1ccccc1F)C(=O)O; NMe3Pal = CN[C@@H](Cc1cccnc1)C(=O)O; X1 = O=C(C12CC(CN[*:1])(C1)C2)[*:2]; NMeF = CN[C@@H](Cc1ccccc1)C(=O)O; 3Pal = N[C@@H](Cc1cccnc1)C(=O)O; Ahp(2) = CCCCC[C@H](N)C(=O)O; αMeC = C[C@](N)(CS)C(=O)O; NMeA = CN[C@@H](C)C(=O)O; Nle = CCCC[C@H](N)C(=O)O
Listed here are compounds together with their documented pEC50.
Keep it numeric: pEC50 is minus log10 of the concentration in mol/L.

[[record]]
compound = "CCCC[C@@H]1NC(=O)[C@H](Cc2cccnc2)NC(=O)[C@H](C)N(C)C(=O)[C@H](Cc2cccnc2)NC(=O)C23CC(CNC(=O)[C@H](Cc4cccnc4)N(C)C(=O)[C@H](CCCC)NC(=O)[C@H](Cc4ccccc4F)NC1=O)(C2)C3 [compound 163] (cyclo([3Pal][NMeA][3Pal][Nle][Phe(2-F)][Nle][NMe3Pal][X1]))"
assay_readout = "pEC50"
value = 5.51


Asked: // pEC50 lookup, key: CCCC[C@@H]1NC(=O)[C@H](Cc2cccnc2)NC(=O)[C@H](C)N(C)C(=O)[C@H](Cc2ccc(F)nc2)NC(=O)C23CC(CNC(=O)[C@H](Cc4cccnc4)N(C)C(=O)[C@H](CCCC)NC(=O)[C@H](Cc4ccccc4F)NC1=O)(C2)C3 [compound 165] (cyclo([3Pal][Nle][Phe(2-F)][Nle][NMe3Pal][X1][X25][NMeA]))
Given back: 5.75

Asked: Try the compound CCCCC[C@@H]1NC(=O)[C@H](Cc2ccc(OC)cc2)NC(=O)[C@H](CC2CCCC2)NC(=O)[C@H](Cc2ccc(NC(=N)N)cc2)NC(=O)[C@H](CCCNC(=N)N)NC(=O)[C@H](Cc2ccccc2)NC(=O)CSC[C@@](C)(C(N)=O)NC(=O)[C@H](Cc2ccccc2)N(C)C1=O [compound 366] ({CH2CO}-FR[Phe(4-guanidino)][Ala(cPent)]Y(Me)[Ahp(2)][NMeF][αMeC]-NH2; thioether N-8)
Given back: 8.40
